# Tested on: CCRF-CEM (acute lymphoblastic leukemia)
# run description: MTT-based viability assay, CCRF-CEM
# Assay type: cell-based, human
# experimental parameters: IC50 Vero/IC50 cancer cells
test readout: SI (selectivity index) CCRF-CEM

In [3]: df
Out[3]:
                                   molecule  recorded_result
0  CC(O)CNc1nc2c(Br)c(Br)c(Br)c(Br)c2[nH]1 (racemic) [rac-5]             1.04
1  OC(CNc1nc2c(Br)c(Br)c(Br)c(Br)c2[nH]1)C(F)(F)F (racemic) [rac-6]             1.72
2  C[C@@H](O)CNc1nc2c(Br)c(Br)c(Br)c(Br)c2[nH]1 [(R)-5]             1.27
3  C[C@H](O)CNc1nc2c(Br)c(Br)c(Br)c(Br)c2[nH]1 [(S)-5]             1.11
4  OCCCNc1nc2c(Br)c(Br)c(Br)c(Br)c2[nH]1 [Compound 7]             1.15
5  OCC(CO)Nc1nc2c(Br)c(Br)c(Br)c(Br)c2[nH]1 [Compound 10]             1.03
6  CN(CCO)c1nc2c(Br)c(Br)c(Br)c(Br)c2[nH]1 [Compound 8]             0.92
7  CCN(CC)CC(O)CNc1nc2c(Br)c(Br)c(Br)c(Br)c2[nH]1 (racemic) [rac-9]             0.88
8  OCC(O)CNc1nc2c(Br)c(Br)c(Br)c(Br)c2[nH]1 (racemic) [rac-11]             1.23

====

# Tested on: MCF-7 (breast carcinoma)
# run description: MTT-based viability assay, MCF-7
# Type: cell-based, human
# experimental parameters: Homo sapiens, MCF7; MTT, 48 h; read-out: IC50 MCF-7
test readout: IC50 (µM)

>>> df
                                   molecule               test_target  recorded_result
0  C[C@H](O)CNc1nc2c(Br)c(Br)c(Br)c(Br)c2[nH]1 [(S)-5]  MCF-7 (breast carcinoma)             16.6
1  CC(O)CNc1nc2c(Br)c(Br)c(Br)c(Br)c2[nH]1 (racemic)  MCF-7 (breast carcinoma)             16.9
2  OCC(O)CNc1nc2c(Br)c(Br)c(Br)c(Br)c2[nH]1 (racemic)  MCF-7 (breast carcinoma)             17.2
3  OCC(CO)Nc1nc2c(Br)c(Br)c(Br)c(Br)c2[nH]1  MCF-7 (breast carcinoma)             16.6
4   CN(CCO)c1nc2c(Br)c(Br)c(Br)c(Br)c2[nH]1  MCF-7 (breast carcinoma)             15.1
5  CCN(CC)CC(O)CNc1nc2c(Br)c(Br)c(Br)c(Br)c2[nH]1 (racemic)  MCF-7 (breast carcinoma)             10.8
6     OCCCNc1nc2c(Br)c(Br)c(Br)c(Br)c2[nH]1  MCF-7 (breast carcinoma)             18.2
7  OC(CNc1nc2c(Br)c(Br)c(Br)c(Br)c2[nH]1)C(F)(F)F (racemic)  MCF-7 (breast carcinoma)             9.66
8  C[C@@H](O)CNc1nc2c(Br)c(Br)c(Br)c(Br)c2[nH]1 [(R)-5]  MCF-7 (breast carcinoma)             16.1

====

This document collects Ki values reported for PIM-1 (Homo sapiens, UniProt P11309).
test readout: Ki (µM)

In [3]: df
Out[3]:
                                   molecule  recorded_result
0  CCN(CC)CC(O)CNc1nc2c(Br)c(Br)c(Br)c(Br)c2[nH]1 (racemic)            0.267
1  C[C@@H](O)CNc1nc2c(Br)c(Br)c(Br)c(Br)c2[nH]1 [(R)-5]            0.089
2  CN(C)c1nc2c(Br)c(Br)c(Br)c(Br)c2[nH]1 [Compound 4, reference compound]            0.052
3  OCC(O)CNc1nc2c(Br)c(Br)c(Br)c(Br)c2[nH]1 (racemic)            0.073
4  OC(CNc1nc2c(Br)c(Br)c(Br)c(Br)c2[nH]1)C(F)(F)F (racemic)            0.067
5  C[C@H](O)CNc1nc2c(Br)c(Br)c(Br)c(Br)c2[nH]1 [(S)-5]            0.099
